- Test system: MS2 coat protein
- Assay method text: apparent KD of MS2 coat protein; designed switch direction (-1 OFF switch, 1 ON switch): 1; higher = weaker reporter binding
- Condition parameters: Eterna round: R95; input ligand: microRNA oligo, concentration not stated
Provide the recorded apparent KD of MS2 coat protein for the entries that follow.
Numbers only, in nM.

[[record]]
residue_string = "AGUCCUGAAAAGAAAAUACAGAGACAUGUACAUGAGGAUCACCCAUGUCAUGUACAAGUUCUAUGCUCGUCAUAUAA [Sensorship 20 - Jieux - Sensor for hsa-mir-208a] (puzzle: Sensor for hsa-mir-208a)"
endpoint_name = "apparent KD of MS2 coat protein"
value_observed = 15.8

[[record]]
residue_string = "GGGAAGAGGGACAAGGAUAUGUCAAAAGAGACAUGAGGAUCACCCAUGUGGAGGUUGGAGCAGAGACAGAAGGUGUACGGAGAGA [JR_SS2_Sub009] (puzzle: Same State 2)"
endpoint_name = "apparent KD of MS2 coat protein"
value_observed = 63

[[record]]
residue_string = "GUAGCAUGCAGGCAGGAUAUUCAUAUUAAAACAUGAGGAUCACCCAUGUAGGCCAAAAGGCCUUGGGAGAAGGGCCACAUGCUAC [Xeonanis - 19] (puzzle: Same State 2)"
endpoint_name = "apparent KD of MS2 coat protein"
value_observed = 488

[[record]]
residue_string = "AUUAAACAUGAGGAUCACCCAUGUCAACAAAGUCGAGGAUAUGGGCAAAUAAAAUAAGAACCAGAAGGCGAAUAUU [salish99_ss1_r3_080] (puzzle: Same State 1)"
endpoint_name = "apparent KD of MS2 coat protein"
value_observed = 407

[[record]]
residue_string = "GGAGCCGGUACUGAGGAUAUUCAUUUUAAAACAUGAGGAUCACCCAUGUAGGCCAGAAGGCCUUGGGAGAAGGCAGACCAGCUCG [Atgexeedri - 6] (puzzle: Same State 2)"
endpoint_name = "apparent KD of MS2 coat protein"
value_observed = 217


Please look at the items below and tell me apparent KD of MS2 coat protein for each one, in order.
1. UGUUGGUUUUUGCUCGUUUUUUGUGUUGAACAUGAGGAUCACCCAUGUAUUGUACAGUCCAGUUUGGUAAUGGUGCG [JR_SHM208A_Sub046] (puzzle: Sensor for hsa-mir-208a)
2. GGAGCCGGUACUGAGGAUAUUCGUAUUAAAACAUGAGGAUCACCCAUGUAGGCCAGAAGGCCUUGGGAGAAGGCAGACCAGCUCG [Atgexeedri - 5] (puzzle: Same State 2)
3. UCUAGACAUGAGGAUCACCCAUGUCGAUAUGGCGCAGGAUAUCGGUACUCAUAGAGUACGCGAGAAGGGUGACUUC [Same State 1 - Mod of Vinnie Gere v.2] (puzzle: Same State 1)
4. CAGCGCUGUCGAGAGGAUAUGCGGUGAUGGACAUGAGGAUCACCCAUGUUAGCGACAGCAUCACGGCAGAAGGCUCUACCCGCUG [Soteed Omei mod 44] (puzzle: Same State 2)

[31.4, 26, 173, 10.6]

====

- System: K4 kissing-loop RNA reporter;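 further: bound reporter read as fluorescence of individual clusters on recovered sequencing chips by microscopy, with normalized cluster intensities fitted with a binding model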
- Assay method text: apparent KD of K4 kissing-loop reporter; higher = weaker reporter binding
- Condition parameters: Eterna round: R107; input ligand: arginine 13.2 mM
Label fulfilled when apparent KD of K4 kissing-loop reporter is at or above 0.1 µM; anything below gets not fulfilled.

[[record]]
residue_string = "CUAUGGAAACAUAGGAAUCGGGAAACCGAUACCAGUAUGGAAACAUACCCUUGGCAGCGGAAUGAUUCAACGGAGUGAUGUUCCG [Theophylline A K4 20]"
qualitative_label = "fulfilled"


Reported apparent KD of K4 kissing-loop reporter at or above 0.1 µM? AAUACAGUACAACCGAGUGGAACACAAAUACGAGGACCGGUACGGCCGCCACUCGUGCAGAAUUUCAGUGAUGUUGAAAUACUGC [Exclusion Tryptophan A GF 6]
fulfilled

apparent KD of K4 kissing-loop reporter >= 0.1 µM for AUCUAGAUGCGAAGGAGCGCCUCAACGCGCUAUCUAUGGAGUGAUGUUCCAACGUAUGAGAGGCAGGUAGGUCGCGCAUCUAGAA [Arg B Ex t1] ?
fulfilled

Hello, I need to know if GAUUCAGUGAUGUUGGAAGGCGAGCGGGAUACCAGCCGAGACUCAGGCCCUUGGCAGCCCACAUAUCCCAGGUAGAUAGUCGAUC [Same State - Theophylline A (Freestyle 9)] has measured apparent KD of K4 kissing-loop reporter not below 0.1 µM. Thanks!
fulfilled

Can UAAGCUCUGACGGCCGCCACUGCACGUGAUCCAGUAGUGGCUAACAUGAGUGAUGUUCAUGUAAGCAGGACCGGGUCAGAGCUAA [KL-XTryp-B13 #analogue] be said to have apparent KD of K4 kissing-loop reporter at or above 0.1 µM?
not fulfilled

Exam item: decide whether the reported apparent KD of K4 kissing-loop reporter for UUAUCUAUAUUCGAUACCAGUACCCUGUGUGUUGAUCCUUUUAUAAGUGAUGUUUAUGAGUACCCUUGGCAGCGGGUAUGGGUUU [KL-XTheo-B17] is at least 0.1 µM.
fulfilled
